# maps each entry to its Kd
- subject_of_test: BAP-tagged AMPK α2β2γ1 (Homo sapiens, UniProt O43741+P54619+P54646)
- Construct: Recombinant full-length AMPK heterotrimeric complexes α1β1γ1, α1β2γ1, α1β2γ3, α2β1γ1, α2β2γ1 and α2β2γ3 were cloned into a tricistronic vector system; 6X-His (N); made in house; host or cells: E. coli BL21-CodonPlus (DE3)-RIPL, co-expressed with BirA
- Sequence (P54646 whole entry): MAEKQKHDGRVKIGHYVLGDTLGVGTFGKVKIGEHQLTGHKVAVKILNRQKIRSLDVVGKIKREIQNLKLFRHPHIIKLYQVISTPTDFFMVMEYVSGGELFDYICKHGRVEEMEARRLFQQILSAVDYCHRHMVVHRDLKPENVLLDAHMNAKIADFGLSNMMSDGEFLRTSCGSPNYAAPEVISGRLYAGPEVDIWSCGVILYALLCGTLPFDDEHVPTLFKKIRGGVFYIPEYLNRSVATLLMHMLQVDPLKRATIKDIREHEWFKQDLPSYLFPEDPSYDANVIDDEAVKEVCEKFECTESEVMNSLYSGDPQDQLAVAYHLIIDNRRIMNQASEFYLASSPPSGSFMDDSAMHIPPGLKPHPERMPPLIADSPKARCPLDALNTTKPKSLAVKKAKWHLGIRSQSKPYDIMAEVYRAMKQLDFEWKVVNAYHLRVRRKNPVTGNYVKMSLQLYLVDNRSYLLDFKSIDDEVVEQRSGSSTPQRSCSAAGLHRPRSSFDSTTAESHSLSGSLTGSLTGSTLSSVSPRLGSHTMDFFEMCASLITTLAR
- Sequence (O43741 whole entry): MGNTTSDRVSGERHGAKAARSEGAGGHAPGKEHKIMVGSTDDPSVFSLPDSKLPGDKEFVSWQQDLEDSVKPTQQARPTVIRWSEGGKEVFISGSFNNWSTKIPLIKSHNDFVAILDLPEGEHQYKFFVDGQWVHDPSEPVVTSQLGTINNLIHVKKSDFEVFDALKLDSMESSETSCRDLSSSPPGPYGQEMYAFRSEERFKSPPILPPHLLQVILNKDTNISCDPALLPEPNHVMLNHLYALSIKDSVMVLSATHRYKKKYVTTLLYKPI
- Sequence (P54619 whole entry): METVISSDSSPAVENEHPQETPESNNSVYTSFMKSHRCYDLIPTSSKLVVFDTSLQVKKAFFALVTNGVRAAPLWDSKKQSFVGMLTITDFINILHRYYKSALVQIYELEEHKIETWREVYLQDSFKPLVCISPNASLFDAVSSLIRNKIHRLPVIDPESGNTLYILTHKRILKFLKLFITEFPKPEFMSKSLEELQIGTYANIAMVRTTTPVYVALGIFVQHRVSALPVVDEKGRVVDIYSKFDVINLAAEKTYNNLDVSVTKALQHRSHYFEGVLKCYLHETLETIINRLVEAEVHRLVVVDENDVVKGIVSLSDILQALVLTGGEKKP
- test: SPR direct binding (Biacore)
- setup_conditions: presence of Mg2+, cell spans KD1 and KD2, read-out: KD (single measurable binding affinity)
Quick note: give the figure in µM, leave out the unit.

{"columns": ["cpd_smiles", "subject_of_test", "result_units", "Kd"],
 "data": [
  ["Nc1ncnc2c1ncn2[C@@H]1O[C@H](COP(=O)(O)OP(=O)(O)O)[C@@H](O)[C@H]1O", "BAP-tagged AMPK α2β2γ1 (Homo sapiens, UniProt O43741+P54619+P54646)", "µM", 22.8]
]}

Now for the compound whose Kd we want.
Q. # return recorded Kd for entry `Nc1ncnc2c1ncn2[C@@H]1O[C@H](COP(=O)(O)OP(=O)(O)OP(=O)(O)O)[C@@H](O)[C@H]1O`
A. 95
